- System: Trypanosoma brucei brucei
- measurement.notes: Antiparasitic activity against Trypanosoma brucei brucei BF427 assessed as growth inhibition by Alamar Blue assay
- Format: functional, organism-based
measured.parameter: EC50

Example entries and their recorded answers appear below.
O=C(Nc1ccc(Cl)c(-c2nc3ncccc3o2)c1)c1cccs1    1500 nM
O=C(Nc1ccc(Cl)c(-c2nc3ccccc3o2)c1)c1ccco1    > 20000 nM

Request: Entry under review: O=C(Nc1ccc(F)c(C(=O)Nc2ccc(Cl)cn2)c1)c1ccco1 . Reported EC50?
Response: 7000 nM

Request: Same question, COc1ccc(-c2cnc3nc(-c4cc(NC(=O)c5ccco5)ccc4F)oc3c2)cc1 this time
Response: 170 nM

Request: Same question, O=C(Nc1ccc(F)c(-c2nc3cc(-c4ccsc4)cnc3[nH]2)c1)N1CCCC1 this time
Response: 2 nM

Request: Same question, O=C(Nc1ccc(F)c(-c2nc3cc(-c4cnc(Cl)nc4)cnc3[nH]2)c1)N1CCCC1 this time
Response: 40 nM

Request: Same question, O=C(Nc1ccc(F)c(-c2nc3ncc(-c4ccccc4)cc3o2)c1)c1ccco1 this time
Response: 40 nM
